Source of measurements: ChEMBL document CHEMBL1140446

pKi: −log10 of the molar value.
Consider molecules characterized by their pKi with Histamine H1 receptor (Homo sapiens, UniProt P35367).
Sequence (P35367 whole entry): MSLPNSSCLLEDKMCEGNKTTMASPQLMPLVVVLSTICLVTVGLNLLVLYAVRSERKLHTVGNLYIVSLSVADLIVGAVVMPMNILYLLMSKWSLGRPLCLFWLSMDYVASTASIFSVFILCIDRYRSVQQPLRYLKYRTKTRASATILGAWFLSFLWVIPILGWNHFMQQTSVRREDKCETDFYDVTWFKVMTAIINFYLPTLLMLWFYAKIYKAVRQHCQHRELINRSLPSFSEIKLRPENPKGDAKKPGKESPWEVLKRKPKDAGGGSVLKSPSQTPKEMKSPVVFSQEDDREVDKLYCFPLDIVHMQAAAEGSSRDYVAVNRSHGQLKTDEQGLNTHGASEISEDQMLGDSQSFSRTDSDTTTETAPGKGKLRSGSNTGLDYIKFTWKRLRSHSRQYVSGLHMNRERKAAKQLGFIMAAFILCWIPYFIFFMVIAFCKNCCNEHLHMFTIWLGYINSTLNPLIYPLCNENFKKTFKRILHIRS
measure.name: pKi

>>> quantitative_result("O=C(O)Cc1ccc2c(c1)C(=CCN1CCC(Cc3ccccc3)CC1)c1ccccc1CO2")
7.70
>>> quantitative_result("CN(C)C/C=C1\\c2ccccc2COc2ccc(CC(=O)O)cc21")
7.96
>>> quantitative_result("CN(CCCCc1c[nH]cn1)CCC(c1ccc(Cl)cc1)c1ccccn1 (stereo not drawn)")
8.15

* * *

Recorded pKi values for a group of compounds are listed next.
- experimental.system: Sodium-dependent serotonin transporter (Homo sapiens)
- Sequence (P31645 whole entry): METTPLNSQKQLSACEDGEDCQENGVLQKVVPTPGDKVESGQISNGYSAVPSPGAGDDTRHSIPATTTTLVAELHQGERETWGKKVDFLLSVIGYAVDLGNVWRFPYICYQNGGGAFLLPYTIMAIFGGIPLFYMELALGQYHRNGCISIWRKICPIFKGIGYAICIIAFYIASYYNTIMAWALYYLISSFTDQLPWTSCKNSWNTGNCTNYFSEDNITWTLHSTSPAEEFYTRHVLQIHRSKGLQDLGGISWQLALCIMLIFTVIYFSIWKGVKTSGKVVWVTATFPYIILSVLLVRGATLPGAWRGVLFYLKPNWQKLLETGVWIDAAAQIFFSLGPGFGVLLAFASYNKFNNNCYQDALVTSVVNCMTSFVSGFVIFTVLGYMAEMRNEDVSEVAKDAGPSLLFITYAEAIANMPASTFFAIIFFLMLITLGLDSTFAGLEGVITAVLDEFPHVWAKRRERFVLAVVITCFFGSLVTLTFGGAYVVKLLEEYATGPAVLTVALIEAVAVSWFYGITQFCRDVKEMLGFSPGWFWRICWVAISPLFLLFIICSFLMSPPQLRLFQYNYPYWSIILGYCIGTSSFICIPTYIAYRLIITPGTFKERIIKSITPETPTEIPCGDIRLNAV
- assay.procedure: Negative logarithm causing 50% receptor occupancy against serotonin transporter
pKi: −log10 of the molar value.
measure.name: pKi

>>> quantitative_result("Cc1ccc2c(OCCN3CCC(Cc4ccc5c(c4)NC(=O)CO5)CC3)cccc2n1")
8.20
>>> quantitative_result("O=C(CCc1cc(C(F)(F)F)cc(C(F)(F)F)c1)N(c1ccc(F)cc1)C1CCNCC1")
6.60
>>> quantitative_result("CC(COc1ccc2c(c1)NC(=O)CO2)NCC(O)COc1cccc2[nH]ccc12 (centres undefined)")
7.30
>>> quantitative_result("O=C1COc2ccc(OCCNCCCOc3cccc4[nH]ccc34)cc2N1")
7.10
